Test: Multi-component PK in rats after i.v. administration of ASEP
Type: in vivo, Sprague-Dawley rats
Details: male, Sprague-Dawley, rat, in vivo, iv, 3.52 ml/kg; read-out: AUC0-∞
MEASURED METRIC: AUC(0-inf) (ng·h/mL)
Express your answer in ng·h/mL, writing the number without its unit.

Req: Which measured AUC(0-inf) value corresponds to COc1cc(/C=C/CO)cc(OC)c1O[C@@H]1O[C@H](CO)[C@@H](O)[C@H](O)[C@H]1O [EB, eleutheroside B] ?
Resp: 4540

----------
Test: Multi-component PK in rats after i.v. administration of ASEP
Assay type: in vivo, Sprague-Dawley rats
Details: male, Sprague-Dawley, rat, in vivo, iv, 3.52 ml/kg; read-out: MRT0-t
MEASURED METRIC: MRT last
Number first, unit second: that is the form wanted.

Req: I would be grateful if you could share the reported MRT last for COc1cc(/C=C/CO)cc(OC)c1O[C@@H]1O[C@H](CO)[C@@H](O)[C@H](O)[C@H]1O [EB, eleutheroside B] .
Resp: 26.4 min

----------
Assay: in vivo
Assay type: in vivo, Sprague-Dawley rats
Settings: male, Sprague-Dawley, rat, in vivo, iv, t 1/2
MEASURED METRIC: half-life (min)
The reply should be a number in min, with the unit left off.

Req: Fill in: half-life of C=C[C@@H]1C2=CCOC(=O)C2=CO[C@H]1O[C@@H]1O[C@H](CO)[C@@H](O)[C@H](O)[C@H]1O [GPS, gentiopicroside] is ___
Resp: 13.8

----------
Assay: Stability of the compounds in rat plasma (LC-MS validation)
Assay type: in vitro ADME
Settings: extracted plasma samples, 10h in auto-sampler vials, low spiked level (LQC, 5-30 ng/mL)
MEASURED METRIC: Stability, RE (%)
All answers are understood in %, so give the number only.

Req: Item COc1cc(/C=C/CO)cc(OC)c1O[C@@H]1O[C@H](CO)[C@@H](O)[C@H](O)[C@H]1O [EB, eleutheroside B] has what recorded Stability, RE?
Resp: 12.12

Req: Next entry: O=C(O)c1ccc(O)c(O)c1
Resp: -2.62

Req: One more compound: C=C[C@@H]1C2=CCOC(=O)C2=CO[C@H]1O[C@@H]1O[C@H](CO)[C@@H](O)[C@H](O)[C@H]1O [GPS, gentiopicroside]
Resp: 10.09

Req: What about this compound? O=C(/C=C/c1ccc(O)c(O)c1)OC1[C@H](O)CC(O)(C(=O)O)C[C@H]1O (stereo partly shown)
Resp: -16.89

----------
Experiment: Stability of the compounds in rat plasma (LC-MS validation)
Assay type: in vitro ADME
Settings: rat plasma, 6h at room temperature, high spiked level (HQC, 8000-16000 ng/mL)
MEASURED METRIC: Stability, RE (%)
Give just the number in %; leave the unit off.

Req: Entry under review: O=C(O)c1ccc(O)c(O)c1 [PCA, protocatechuic acid] . Reported Stability, RE?
Resp: 0.16

Req: Also, C=C[C@@H]1C2=CCOC(=O)C2=CO[C@H]1O[C@@H]1O[C@H](CO)[C@@H](O)[C@H](O)[C@H]1O [GPS, gentiopicroside] please.
Resp: -13.56

Req: Same for COc1cc(/C=C/CO)cc(OC)c1O[C@@H]1O[C@H](CO)[C@@H](O)[C@H](O)[C@H]1O [EB, eleutheroside B]
Resp: -4.48

Req: Try this compound too: O=C(/C=C/c1ccc(O)c(O)c1)OC1[C@H](O)CC(O)(C(=O)O)C[C@H]1O (stereo partly shown) [4-CQA]
Resp: -7.63

----------
Experiment: Multi-component PK in rats after i.v. administration of ASEP
Type: in vivo, Sprague-Dawley rats
Details: male, Sprague-Dawley, rat, plasma, iv, 1.76 ml/kg, rat plasma, Low group: single i.v. 1.76 ml/kg of 5 times concentrated ASEP, mean ± SD, n=3; read-out: AUC0-∞
MEASURED METRIC: AUC(0-inf) (ng·h/mL)
Provide the reading as a plain figure in ng·h/mL.

Req: Give the measured AUC(0-inf) of O=C(O)c1ccc(O)c(O)c1 .
Resp: 204

Req: Next compound up: O=C(/C=C/c1ccc(O)c(O)c1)O[C@@H]1C[C@](O)(C(=O)O)C[C@@H](O)[C@H]1O
Resp: 1830

----------
Assay: Multi-component PK in rats after i.v. administration of ASEP
Assay type: in vivo, Sprague-Dawley rats
Details: male, Sprague-Dawley, rat, plasma, iv, 3.52 ml/kg, rat plasma, High group: single i.v. 3.52 ml/kg of 5 times concentrated ASEP, mean ± SD, n=3; read-out: MRT0-∞
Description: The animal experiments were conducted in line with the Guide for the Care and Use of Laboratory Animals (published by the USA National Institutes of Health, NIH Publication no. 85-23, revised 1996), which were approved by the Animal Care and Use Committee of the College of Animal Science (College of Bee Science), Fujian Agriculture and Forestry University (Approval Number: […]2019004). […] All rats were acclimated to the facilities and environment for 7 days before the experiments. […]
MEASURED METRIC: MRT inf (min)
Output spec: scalar in min, unitless text.

Req: Name the reported MRT inf value associated with the molecule O=C(/C=C/c1ccc(O)c(O)c1)O[C@@H]1C[C@](O)(C(=O)O)C[C@@H](O)[C@H]1O
Resp: 25.8

Req: Query O=C(O)c1ccc(O)c(O)c1 next
Resp: 19.2

----------
Test: Stability of the compounds in rat plasma (LC-MS validation)
Format: in vitro ADME
Conditions: rat plasma, 6h at room temperature, middle spiked level (MQC, 400-1600 ng/mL)
So I've got a bunch of molecules here, and I need their Stability, RE values.
// return numeric value only (unit: %, not printed)

Req: Fill in: Stability, RE of C=C[C@@H]1C2=CCOC(=O)C2=CO[C@H]1O[C@@H]1O[C@H](CO)[C@@H](O)[C@H](O)[C@H]1O [GPS, gentiopicroside] is ___
Resp: -6.72

Req: Cool, now COc1cc(/C=C/CO)cc(OC)c1O[C@@H]1O[C@H](CO)[C@@H](O)[C@H](O)[C@H]1O [EB, eleutheroside B]
Resp: -14.91

Req: Then this molecule: O=C(/C=C/c1ccc(O)c(O)c1)OC1[C@H](O)CC(O)(C(=O)O)C[C@H]1O (stereo partly shown)
Resp: 9.60

Req: Also O=C(O)c1ccc(O)c(O)c1 , if possible.
Resp: -4.01

----------
Assay: Stability of the compounds in rat plasma (LC-MS validation)
Type: in vitro ADME
Details: extracted plasma samples, 10h in auto-sampler vials, high spiked level (HQC, 8000-16000 ng/mL)
MEASURED METRIC: Stability, RE (%)
Write the answer as a number in %, unit excluded.

Req: Which Stability, RE value is on record for COc1cc(/C=C/CO)cc(OC)c1O[C@@H]1O[C@H](CO)[C@@H](O)[C@H](O)[C@H]1O [EB, eleutheroside B] ?
Resp: 1.92

Req: Could you do the same for O=C(O)c1ccc(O)c(O)c1 [PCA, protocatechuic acid] , please?
Resp: -5.63

Req: Same for C=C[C@@H]1C2=CCOC(=O)C2=CO[C@H]1O[C@@H]1O[C@H](CO)[C@@H](O)[C@H](O)[C@H]1O [GPS, gentiopicroside]
Resp: -9.29

Req: O=C(/C=C/c1ccc(O)c(O)c1)OC1[C@H](O)CC(O)(C(=O)O)C[C@H]1O (stereo partly shown) [4-CQA] ?
Resp: -6.85

----------
Assay: Multi-component PK in rats after i.v. administration of ASEP
Type: in vivo, Sprague-Dawley rats
Conditions: male, Sprague-Dawley, rat, in vivo, iv, 1.76 ml/kg; read-out: MRT0-∞
MEASURED METRIC: MRT inf (min)
Entry rule: numbers only, all in min.

Req: Look up MRT inf for this molecule: COc1cc(/C=C/CO)cc(OC)c1O[C@@H]1O[C@H](CO)[C@@H](O)[C@H](O)[C@H]1O [EB, eleutheroside B]
Resp: 31.2

----------
Assay: in vivo
Format: in vivo, Sprague-Dawley rats
Conditions: male, Sprague-Dawley, rat, in vivo, iv, Cl
Method: The animal experiments were conducted in line with the Guide for the Care and Use of Laboratory Animals (published by the USA National Institutes of Health, NIH Publication no. 85-23, revised 1996), which were approved by the Animal Care and Use Committee of the College of Animal Science (College of Bee Science), Fujian Agriculture and Forestry University (Approval Number: […]2019004). […] All rats were acclimated to the facilities and environment for 7 days before the experiments. […]
MEASURED METRIC: clearance (mL/min)
Numeric answer only, unit mL/min assumed.

Req: Fill in: clearance of C=C[C@@H]1C2=CCOC(=O)C2=CO[C@H]1O[C@@H]1O[C@H](CO)[C@@H](O)[C@H](O)[C@H]1O [GPS, gentiopicroside] is ___
Resp: 55.3
